Species on record: Mus musculus
Assay: Selectivity ratio of Ki for delta opioid receptor in mouse whole brain without cerebellum to Ki for mu opioid receptor in mouse whole brain without cerebellum
measurement_name: Ratio Ki
Give a plain numeric answer without units written out.

I'd like to know its Ratio Ki. The compound in question is `Oc1ccc2c3c1O[C@H]1[C@]4(CC[C@@]5(O)[C@@H](C2)N(CC2CC2)CC[C@]315)O[C@@H]1CO[C@@H]2CO[C@H]4N21`
11.5

I'd like to know its Ratio Ki. The compound in question is `CC1(C)O[C@H]2N3[C@@H]1O[C@]1(CC[C@@]4(O)[C@H]5Cc6ccc(O)c7c6[C@@]4(CCN5CC4CC4)[C@H]1O7)[C@H]3OC2(C)C`
33.6

I'd like to know its Ratio Ki. The compound in question is `CC1(C)O[C@@H]2N3[C@H]1O[C@]1(CC[C@@]4(O)[C@H]5Cc6ccc(O)c7c6[C@@]4(CCN5CC4CC4)[C@H]1O7)[C@@H]3OC2(C)C`
4.11

I'd like to know its Ratio Ki. The compound in question is `CC(C)CN1CC[C@]23c4c5ccc(O)c4O[C@H]2[C@]2(CC[C@@]3(O)[C@H]1C5)O[C@@H]1CO[C@@H]3CO[C@H]2N31`
0.798

I'd like to know its Ratio Ki. The compound in question is `Oc1ccc2c3c1O[C@H]1[C@]4(CC[C@@]5(O)[C@@H](C2)N(Cc2ccccc2)CC[C@]315)O[C@H]1CO[C@H]2CO[C@@H]4N21`
0.145

I'd like to know its Ratio Ki. The compound in question is `CN1CC[C@]23c4c5ccc(O)c4O[C@H]2[C@]2(CC[C@@]3(O)[C@H]1C5)O[C@H]1CO[C@H]3CO[C@@H]2N31`
55.9

====

Target: Delta-type opioid receptor (Mus musculus)
Sequence (P32300 whole entry): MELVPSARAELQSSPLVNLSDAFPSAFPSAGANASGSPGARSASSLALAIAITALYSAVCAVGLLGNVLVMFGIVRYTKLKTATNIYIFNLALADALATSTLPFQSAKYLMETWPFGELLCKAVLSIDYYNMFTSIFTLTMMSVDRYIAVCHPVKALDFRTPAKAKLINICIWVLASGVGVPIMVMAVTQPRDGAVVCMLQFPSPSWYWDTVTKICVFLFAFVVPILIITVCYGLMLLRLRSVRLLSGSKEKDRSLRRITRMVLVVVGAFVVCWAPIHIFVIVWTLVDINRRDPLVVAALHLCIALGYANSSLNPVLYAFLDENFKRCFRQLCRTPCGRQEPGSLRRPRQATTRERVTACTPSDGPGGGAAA
Experiment: Displacement of [3H]DPDPE from delta opioid receptor in mouse whole brain without cerebellum
Please respond with reported Ki for every item in the list.
Express your answer in nM, writing the number without its unit.

I'd like to know its Ki. The compound in question is `CC(C)CN1CC[C@]23c4c5ccc(O)c4O[C@H]2[C@]2(CC[C@@]3(O)[C@H]1C5)O[C@@H]1CO[C@@H]3CO[C@H]2N31`
79.1

I'd like to know its Ki. The compound in question is `CN1CC[C@]23c4c5ccc(O)c4O[C@H]2[C@]2(CC[C@@]3(O)[C@H]1C5)O[C@@H]1CO[C@@H]3CO[C@H]2N31`
171

I'd like to know its Ki. The compound in question is `CN1CC[C@]23c4c5ccc(O)c4O[C@H]2[C@]2(CC[C@@]3(O)[C@H]1C5)O[C@H]1CO[C@H]3CO[C@@H]2N31`
133

====

Target: Mu-type opioid receptor (Mus musculus, UniProt P42866)
Sequence (P42866 whole entry): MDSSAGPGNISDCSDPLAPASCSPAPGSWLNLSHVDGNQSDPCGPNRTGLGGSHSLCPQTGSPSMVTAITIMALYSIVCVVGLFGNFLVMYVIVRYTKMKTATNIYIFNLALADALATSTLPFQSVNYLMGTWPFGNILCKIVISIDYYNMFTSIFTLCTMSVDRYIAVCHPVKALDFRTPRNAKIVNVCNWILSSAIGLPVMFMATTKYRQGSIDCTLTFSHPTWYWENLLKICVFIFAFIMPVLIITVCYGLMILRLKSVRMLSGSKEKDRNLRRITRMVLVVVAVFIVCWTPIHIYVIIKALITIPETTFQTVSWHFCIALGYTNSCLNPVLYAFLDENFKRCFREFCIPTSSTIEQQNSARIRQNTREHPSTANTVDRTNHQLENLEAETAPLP
Assay: Displacement of [3H]DAMGO from mu opioid receptor in mouse whole brain without cerebellum
measurement_name: Ki (nM)
Express your answer in nM, writing the number without its unit.

I'd like to know its Ki. The compound in question is `Oc1ccc2c3c1O[C@H]1[C@]4(CC[C@@]5(O)[C@@H](C2)N(CC2CC2)CC[C@]315)O[C@H]1CO[C@H]2CO[C@@H]4N21`
6.85

I'd like to know its Ki. The compound in question is `CC(C)CN1CC[C@]23c4c5ccc(O)c4O[C@H]2[C@]2(CC[C@@]3(O)[C@H]1C5)O[C@H]1CO[C@H]3CO[C@@H]2N31`
85.7

I'd like to know its Ki. The compound in question is `CN1CC[C@]23c4c5ccc(O)c4O[C@H]2[C@]2(CC[C@@]3(O)[C@H]1C5)O[C@H]1CO[C@H]3CO[C@@H]2N31`
2.38

I'd like to know its Ki. The compound in question is `CC1(C)O[C@@H]2N3[C@H]1O[C@]1(CC[C@@]4(O)[C@H]5Cc6ccc(O)c7c6[C@@]4(CCN5CC4CC4)[C@H]1O7)[C@@H]3OC2(C)C`
5.35

I'd like to know its Ki. The compound in question is `Oc1ccc2c3c1O[C@H]1[C@]4(CC[C@@]5(O)[C@@H](C2)N(Cc2ccccc2)CC[C@]315)O[C@H]1CO[C@H]2CO[C@@H]4N21`
581

I'd like to know its Ki. The compound in question is `CN1CC[C@]23c4c5ccc(O)c4O[C@H]2[C@]2(CC[C@@]3(O)[C@H]1C5)O[C@@H]1N3[C@@H](OC1(C)C)C(C)(C)O[C@H]32`
2.67

====

Please respond with reported Ratio Ki for every item in the list.
Assay: Selectivity ratio of Ki for kappa opioid receptor in guinea pig cerebellum to Ki for mu opioid receptor in mouse whole brain without cerebellum

I'd like to know its Ratio Ki. The compound in question is `CC(C)CN1CC[C@]23c4c5ccc(O)c4O[C@H]2[C@]2(CC[C@@]3(O)[C@H]1C5)O[C@@H]1CO[C@@H]3CO[C@H]2N31`
> 10.1

I'd like to know its Ratio Ki. The compound in question is `Oc1ccc2c3c1O[C@H]1[C@]4(CC[C@@]5(O)[C@@H](C2)N(Cc2ccccc2)CC[C@]315)O[C@H]1CO[C@H]2CO[C@@H]4N21`
> 1.72

I'd like to know its Ratio Ki. The compound in question is `CC(C)CN1CC[C@]23c4c5ccc(O)c4O[C@H]2[C@]2(CC[C@@]3(O)[C@H]1C5)O[C@@H]1N3[C@@H](OC1(C)C)C(C)(C)O[C@H]32`
> 7.46

====

pKi: −log10 of the molar value.
Please respond with reported pKi for every item in the list.

Notebook entry, UniProt P41144 assay: pKi of `CN1CC[C@]23c4c5ccc(O)c4O[C@H]2[C@]2(CC[C@@]3(O)[C@H]1C5)O[C@H]1CO[C@H]3CO[C@@H]2N31` = ?
< 6.00

Notebook entry, UniProt P41144 assay: pKi of `CC(C)CN1CC[C@]23c4c5ccc(O)c4O[C@H]2[C@]2(CC[C@@]3(O)[C@H]1C5)O[C@H]1N3[C@H](OC1(C)C)C(C)(C)O[C@@H]32` = ?
< 6.00

Notebook entry, UniProt P41144 assay: pKi of `CN1CC[C@]23c4c5ccc(O)c4O[C@H]2[C@]2(CC[C@@]3(O)[C@H]1C5)O[C@H]1N3[C@H](OC1(C)C)C(C)(C)O[C@@H]32` = ?
< 6.00

====

Experiment: Selectivity ratio of Ki for kappa opioid receptor in guinea pig cerebellum to Ki for mu opioid receptor in mouse whole brain without cerebellum
Please respond with reported Ratio Ki for every item in the list.

I'd like to know its Ratio Ki. The compound in question is `CN1CC[C@]23c4c5ccc(O)c4O[C@H]2[C@]2(CC[C@@]3(O)[C@H]1C5)O[C@@H]1N3[C@@H](OC1(C)C)C(C)(C)O[C@H]32`
> 375

I'd like to know its Ratio Ki. The compound in question is `CN1CC[C@]23c4c5ccc(O)c4O[C@H]2[C@]2(CC[C@@]3(O)[C@H]1C5)O[C@H]1N3[C@H](OC1(C)C)C(C)(C)O[C@@H]32`
> 541

I'd like to know its Ratio Ki. The compound in question is `CC1(C)O[C@H]2N3[C@@H]1O[C@]1(CC[C@@]4(O)[C@H]5Cc6ccc(O)c7c6[C@@]4(CCN5Cc4ccccc4)[C@H]1O7)[C@H]3OC2(C)C`
> 2.22

I'd like to know its Ratio Ki. The compound in question is `Oc1ccc2c3c1O[C@H]1[C@]4(CC[C@@]5(O)[C@@H](C2)N(CC2CC2)CC[C@]315)O[C@H]1CO[C@H]2CO[C@@H]4N21`
0.869

I'd like to know its Ratio Ki. The compound in question is `CC(C)CN1CC[C@]23c4c5ccc(O)c4O[C@H]2[C@]2(CC[C@@]3(O)[C@H]1C5)O[C@H]1CO[C@H]3CO[C@@H]2N31`
> 11.7

====

Species on record: Mus musculus
Assay: Selectivity ratio of Ki for delta opioid receptor in mouse whole brain without cerebellum to Ki for mu opioid receptor in mouse whole brain without cerebellum
measurement_name: Ratio Ki
Give a plain numeric answer without units written out.

I'd like to know its Ratio Ki. The molecule in question is `CC(C)CN1CC[C@]23c4c5ccc(O)c4O[C@H]2[C@]2(CC[C@@]3(O)[C@H]1C5)O[C@H]1CO[C@H]3CO[C@@H]2N31`
9.89

I'd like to know its Ratio Ki. The molecule in question is `CN1CC[C@]23c4c5ccc(O)c4O[C@H]2[C@]2(CC[C@@]3(O)[C@H]1C5)O[C@H]1N3[C@H](OC1(C)C)C(C)(C)O[C@@H]32`
42.8

I'd like to know its Ratio Ki. The molecule in question is `CN1CC[C@]23c4c5ccc(O)c4O[C@H]2[C@]2(CC[C@@]3(O)[C@H]1C5)O[C@@H]1CO[C@@H]3CO[C@H]2N31`
73.1

I'd like to know its Ratio Ki. The molecule in question is `CC(C)CN1CC[C@]23c4c5ccc(O)c4O[C@H]2[C@]2(CC[C@@]3(O)[C@H]1C5)O[C@@H]1N3[C@@H](OC1(C)C)C(C)(C)O[C@H]32`
4.04

I'd like to know its Ratio Ki. The molecule in question is `CN1CC[C@]23c4c5ccc(O)c4O[C@H]2[C@]2(CC[C@@]3(O)[C@H]1C5)O[C@@H]1N3[C@@H](OC1(C)C)C(C)(C)O[C@H]32`
3.66

I'd like to know its Ratio Ki. The molecule in question is `Oc1ccc2c3c1O[C@H]1[C@]4(CC[C@@]5(O)[C@@H](C2)N(CC2CC2)CC[C@]315)O[C@H]1CO[C@H]2CO[C@@H]4N21`
11.5

The measured values listed here are drawn from ChEMBL document CHEMBL2203184.
